Please provide measured Activity for the entries that follow.
target: Cannabinoid receptor 1 (Rattus norvegicus); test: Displacement of [3H]CP-55940 from cannabinoid CB1 receptor in rat brain cortical membrane at 10 uM; type: cell membranes
Give bare numbers, in %.

Your task in this section: give Activity for each listed record.
1. COc1ccc(Br)c2oc(=O)c(Cc3ccccc3)cc12
2. COc1ccc2cc(C)c(=O)oc2c1
3. CC1(C)Oc2c(cccc2-c2ccccc2)C=C1C=O
4. O=c1oc2ccccc2cc1Cc1ccccc1
5. COc1ccc2oc(=O)c(Cc3ccccc3)cc2c1
6. COc1cccc2cc(C)c(=O)oc12

39
1
46
18
8
6

Your task in this section: give Activity for each listed record.
1. COc1ccc(Br)c2c1C=C(C(C)=O)C(C)O2 (stereo not drawn)
2. O=c1oc2ccc([N+](=O)[O-])cc2cc1Cc1ccccc1

1: 34; 2: 32

###

biological target: Cannabinoid receptor 1 (Rattus norvegicus)
value-type: Ki

compound	experimental-system	Ki
COc1cccc2cc(Cc3ccccc3)c(=O)oc12	Cannabinoid receptor 1 (Rattus norvegicus)	≥ 10 µM
COc1cc(C)cc2oc(=O)c(Cc3ccccc3O)cc12	Cannabinoid receptor 1 (Rattus norvegicus)	1.1 µM
COc1ccc(Cc2cc3c(OC)cc(C)cc3oc2=O)cc1	Cannabinoid receptor 1 (Rattus norvegicus)	6.14 µM
COc1cccc2cc(C)c(=O)oc12	Cannabinoid receptor 1 (Rattus norvegicus)	≥ 10 µM
COc1cc(Br)cc2cc(C)c(=O)oc12	Cannabinoid receptor 1 (Rattus norvegicus)	> 10 µM
COc1ccc2cc(C)c(=O)oc2c1	Cannabinoid receptor 1 (Rattus norvegicus)	≥ 10 µM
Cc1cc2c(C(C)C)ccc(C)c2oc1=O	Cannabinoid receptor 1 (Rattus norvegicus)	> 10 µM
COc1ccc2oc(=O)c(Cc3ccccc3)cc2c1	Cannabinoid receptor 1 (Rattus norvegicus)	≥ 10 µM
COc1ccccc1Cc1cc2c(ccc3ccccc32)oc1=O	Cannabinoid receptor 1 (Rattus norvegicus)	> 10 µM
Cc1cc2cc(I)ccc2oc1=O	Cannabinoid receptor 1 (Rattus norvegicus)	> 10 µM

Your task in this section: give Ki for each listed record.
1. O=c1oc2ccc3ccccc3c2cc1Cc1ccccc1
2. COc1ccccc1Cc1cc2c(C(C)C)ccc(C)c2oc1=O
3. COc1ccc(Br)c2c1C=C(C(C)=O)C(C)O2 (stereo not drawn)

1. 4.19 µM
2. 6.18 µM
3. > 10 µM

###

biological target: Cannabinoid receptor 1 (Rattus norvegicus) (UniProt P20272); test: Antagonist activity at cannabinoid CB1 receptor in rat brain cortical membrane assessed as effect on GTPgammaS binding at 30 uM by liquid scintillation counting relative to CP-55940; assay type: functional, cell membranes; set-up: scale not given: the % may be the effect or the level left
Sequence (P20272 whole entry): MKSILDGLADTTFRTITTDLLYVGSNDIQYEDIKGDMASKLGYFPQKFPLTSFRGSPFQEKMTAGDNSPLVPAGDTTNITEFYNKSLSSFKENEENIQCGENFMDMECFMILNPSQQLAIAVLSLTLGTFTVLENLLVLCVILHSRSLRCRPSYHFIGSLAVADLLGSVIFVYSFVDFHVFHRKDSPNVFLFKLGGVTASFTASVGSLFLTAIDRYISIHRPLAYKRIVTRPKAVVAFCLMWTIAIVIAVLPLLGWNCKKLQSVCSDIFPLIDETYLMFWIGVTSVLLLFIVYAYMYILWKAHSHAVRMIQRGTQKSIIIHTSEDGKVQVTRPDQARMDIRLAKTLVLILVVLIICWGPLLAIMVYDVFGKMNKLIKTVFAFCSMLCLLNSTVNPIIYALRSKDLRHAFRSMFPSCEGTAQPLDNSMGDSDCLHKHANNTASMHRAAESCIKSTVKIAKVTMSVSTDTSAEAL
The threshold is 10%. Values of Activity beneath it are tagged y; values meeting or exceeding it are tagged n.

Worked set:
Cc1c(C(=O)NN2CCOCC2)nn(-c2ccc(Cl)cc2Cl)c1-c1ccc(I)cc1 y
COc1ccccc1Cc1cc2c(OC)cc(C)cc2oc1=O y
COc1ccc(Cc2cc3c(OC)cc(C)cc3oc2=O)cc1 n
COc1cc(C)cc2oc(=O)c(Cc3ccccc3)cc12 y
O=c1oc2ccc3ccccc3c2cc1Cc1ccccc1 n

Quick check: Activity of Cc1ccc(C(C)C)c2cc(Cc3ccccc3)c(=O)oc12 under 10%? n

###

biological target: Cannabinoid receptor 2 (Homo sapiens, UniProt P34972); assay: Displacement of [3H]CP-55940 from human recombinant cannabinoid CB2 receptor expressed in HEK293 cells at 10 uM; assay type: cell-based
Sequence (P34972 whole entry): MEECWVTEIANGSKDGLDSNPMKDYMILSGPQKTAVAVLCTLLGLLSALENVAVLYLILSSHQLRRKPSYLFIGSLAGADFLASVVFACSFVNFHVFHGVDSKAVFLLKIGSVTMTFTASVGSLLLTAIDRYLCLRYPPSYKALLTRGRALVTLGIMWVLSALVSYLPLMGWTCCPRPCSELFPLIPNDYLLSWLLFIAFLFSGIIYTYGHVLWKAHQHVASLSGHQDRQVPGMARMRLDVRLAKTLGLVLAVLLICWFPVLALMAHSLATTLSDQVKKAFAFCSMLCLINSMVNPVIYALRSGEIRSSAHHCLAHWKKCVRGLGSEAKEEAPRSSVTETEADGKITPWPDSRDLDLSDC
value-type: Activity

Reference set (4 entries):
compound	Activity
CC1(C)Oc2c(cccc2-c2ccccc2)C=C1C=O	3%
O=c1oc2ccc3ccccc3c2cc1Cc1ccccc1	59%
COc1cccc2oc(=O)c(Cc3ccccc3)cc12	28%
O=c1oc2ccccc2cc1Cc1ccccc1	28%

Your task in this section: give Activity for each listed record.
1. COc1ccc(Br)c2c1C=C(C(C)=O)C(C)O2 (configuration not stated)
2. O=C1C2=Cc3ccccc3OC2CC/C1=C\c1ccccc1O (configuration not stated)
3. COc1cccc2cc(Cc3ccccc3)c(=O)oc12
4. COc1ccc(Br)c2oc(=O)c(Cc3ccccc3)cc12

1: 7%; 2: 37%; 3: 25%; 4: 29%

###

molecular target: Cannabinoid receptor 2 (Homo sapiens, UniProt P34972); test: Displacement of [3H]CP-55940 from human recombinant cannabinoid CB2 receptor expressed in HEK293 cells
value-type: Ki (µM)
One number for each entry, in µM.

Reference set (2 entries):
COc1cc(C)cc2oc(=O)c(Cc3ccccc3Cl)cc12 1.54
COc1cc(C)cc2oc(=O)c(Cc3ccccc3C)cc12 2.16

Your task in this section: give Ki for each listed record.
1. COc1cc(C)cc2oc(=O)c(Cc3ccccc3O)cc12
2. Cc1ccc(C(C)C)c2cc(Cc3ccccc3)c(=O)oc12
3. COc1ccccc1Cc1cc2c(ccc3ccccc32)oc1=O
4. COc1ccccc1Cc1cc2c(OC)cc(C)cc2oc1=O

1: 5.24; 2: 4.27; 3: 2.06; 4: 1.03

Your task in this section: give Ki for each listed record.
1. COc1cc(C)cc2oc(=O)c(Cc3ccc(Cl)cc3)cc12
2. COc1ccc(Cc2cc3c(OC)cc(C)cc3oc2=O)cc1

1: 9.39; 2: 5.81

Your task in this section: give Ki for each listed record.
1. COc1ccccc1Cc1cc2c(OC)cccc2oc1=O
2. COc1ccccc1Cc1cc2c(C(C)C)ccc(C)c2oc1=O
3. COc1cccc(Cc2cc3c(OC)cc(C)cc3oc2=O)c1
4. COc1cc(C)cc2oc(=O)c(Cc3ccc(C)cc3)cc12

1: 3.49; 2: 5.67; 3: 3.37; 4: 4.76

###

target: Cannabinoid receptor 1 (Homo sapiens); assay: Inverse agonist activity at human recombinant cannabinoid CB1 receptor expressed in HEK293 cells assessed as decrease in GTPgammaS binding at 30 uM by liquid scintillation counting relative to CP-55940; type: functional, cell-based; parameters: scale not given: the % may be the effect or the level left
value-type: Activity

Your task in this section: give Activity for each listed record.
1. COc1cc(C)cc2oc(=O)c(Cc3ccccc3)cc12
2. Cc1ccc(C(C)C)c2cc(Cc3ccccc3)c(=O)oc12
3. O=c1oc2ccc3ccccc3c2cc1Cc1ccccc1

1: -8%; 2: -9%; 3: -21%

Your task in this section: give Activity for each listed record.
1. COc1ccccc1Cc1cc2c(OC)cc(C)cc2oc1=O
2. Cc1c(C(=O)NN2CCOCC2)nn(-c2ccc(Cl)cc2Cl)c1-c1ccc(I)cc1
3. COc1ccc(Cc2cc3c(OC)cc(C)cc3oc2=O)cc1

1: -16%; 2: -19%; 3: -10%

###

target: Cannabinoid receptor 2 (Homo sapiens, UniProt P34972); experiment: Displacement of [3H]CP-55940 from human recombinant cannabinoid CB2 receptor expressed in HEK293 cells
Please provide measured Ki for the entries that follow.

Reference set (4 entries):
compound	Ki
COc1ccc(Cc2cc3c(OC)cc(C)cc3oc2=O)c(OC)c1	2.78 µM
COc1cc(C)cc2oc(=O)c(Cc3ccccc3)cc12	≥ 10 µM
COc1cc(Br)cc2cc(C)c(=O)oc12	> 10 µM
Cc1cc2c(C(C)C)ccc(C)c2oc1=O	> 10 µM

Your task in this section: give Ki for each listed record.
1. COc1cccc2cc(Cc3ccccc3)c(=O)oc12
2. COc1ccc(Br)c2c1C=C(C(C)=O)C(C)O2 (stereo not given)
3. COc1cccc2cc(C)c(=O)oc12
4. O=c1oc2ccc3ccccc3c2cc1Cc1ccccc1
5. COc1ccccc1Cc1cc2c(OC)ccc(C)c2oc1=O
6. O=C1C2=Cc3ccccc3OC2CC/C1=C\c1ccccc1O (stereo not given)

["≥ 10 µM", "> 10 µM", "> 10 µM", "≥ 10 µM", "3.65 µM", "> 10 µM"]

###

molecular target: Cannabinoid receptor 1 (Rattus norvegicus, UniProt P20272)
Sequence (P20272 whole entry): as the sequence (P20272 whole entry) above
value-type: Ki

Reference set (3 entries):
COc1ccc2oc(=O)c(C)cc2c1 > 10 µM
COc1cc(C)cc2oc(=O)c(Cc3ccccc3C)cc12 1.17 µM
CC1(C)Oc2c(cccc2-c2ccccc2)C=C1C=O ≥ 10 µM

Your task in this section: give Ki for each listed record.
1. COc1ccc2cc(Cc3ccccc3)c(=O)oc2c1
2. Cc1cc2cc(Cl)cc(Br)c2oc1=O
3. COc1cc(C)cc2oc(=O)c(Cc3ccc(Cl)cc3)cc12

> 10 µM
≥ 10 µM
2.08 µM

###

Measurement record for Cannabinoid receptor 1 (Rattus norvegicus, UniProt P20272); quantity recorded: Ki.
Numbers only, in µM.

Reference set (7 entries):
compound	Ki, µM
COc1ccccc1Cc1cc2c(OC)ccc(C)c2oc1=O	12.3
COc1ccc(Cc2cc3c(OC)cc(C)cc3oc2=O)c(OC)c1	6.23
O=C1C2=Cc3ccccc3OC2CC/C1=C\c1ccccc1O (stereo not drawn)	4.9
COc1cccc(Cc2cc3c(OC)cc(C)cc3oc2=O)c1	4.11
COc1cc(C)cc2oc(=O)c(Cc3ccccc3)cc12	3.46
COc1cc(C)cc2oc(=O)c(Cc3ccc(C)cc3)cc12	9.14
Cc1ccc(C(C)C)c2cc(Cc3ccccc3)c(=O)oc12	2.76

Form field: reported Ki of COc1ccccc1Cc1cc2c(OC)cccc2oc1=O 9.57
